Below, each of the compounds is paired with its reported Ki value.
- study_system: UniProt:Q9Y5S2
- experimental_details: MRCKβ kinase assay (IMAP fluorescence polarization)
- Format: biochemical
- particulars: 1 μM ATP; read-out: MRCK-B Average Ki
endpoint_name: Ki

| compound | study_system | value_measured |
| --- | --- | --- |
| c1cc(-c2c[nH]c3nccc(N4CCC[C@@]5(CCCCN5)C4)c23)ncn1 | UniProt:Q9Y5S2 | 0.0233 nM |
| Cn1ccc(-c2c[nH]c3nccc(N4CCCCC4)c23)n1 | UniProt:Q9Y5S2 | 656 nM |
| c1ncc(-c2c[nH]c3nccc(O[C@H]4CCCNC4)c23)cn1 | UniProt:Q9Y5S2 | 50.6 nM |
| N#Cc1c[nH]c2nccc(N3CCCC3Cc3ccccc3)c12 (stereo not shown) | UniProt:Q9Y5S2 | 90.3 nM |

* * *

- study_system: kinase targets listed in tables 3 and 4 (Homo sapiens, UniProt Q9Y5S2)
- Sequence (Q9Y5S2 whole entry, looked up): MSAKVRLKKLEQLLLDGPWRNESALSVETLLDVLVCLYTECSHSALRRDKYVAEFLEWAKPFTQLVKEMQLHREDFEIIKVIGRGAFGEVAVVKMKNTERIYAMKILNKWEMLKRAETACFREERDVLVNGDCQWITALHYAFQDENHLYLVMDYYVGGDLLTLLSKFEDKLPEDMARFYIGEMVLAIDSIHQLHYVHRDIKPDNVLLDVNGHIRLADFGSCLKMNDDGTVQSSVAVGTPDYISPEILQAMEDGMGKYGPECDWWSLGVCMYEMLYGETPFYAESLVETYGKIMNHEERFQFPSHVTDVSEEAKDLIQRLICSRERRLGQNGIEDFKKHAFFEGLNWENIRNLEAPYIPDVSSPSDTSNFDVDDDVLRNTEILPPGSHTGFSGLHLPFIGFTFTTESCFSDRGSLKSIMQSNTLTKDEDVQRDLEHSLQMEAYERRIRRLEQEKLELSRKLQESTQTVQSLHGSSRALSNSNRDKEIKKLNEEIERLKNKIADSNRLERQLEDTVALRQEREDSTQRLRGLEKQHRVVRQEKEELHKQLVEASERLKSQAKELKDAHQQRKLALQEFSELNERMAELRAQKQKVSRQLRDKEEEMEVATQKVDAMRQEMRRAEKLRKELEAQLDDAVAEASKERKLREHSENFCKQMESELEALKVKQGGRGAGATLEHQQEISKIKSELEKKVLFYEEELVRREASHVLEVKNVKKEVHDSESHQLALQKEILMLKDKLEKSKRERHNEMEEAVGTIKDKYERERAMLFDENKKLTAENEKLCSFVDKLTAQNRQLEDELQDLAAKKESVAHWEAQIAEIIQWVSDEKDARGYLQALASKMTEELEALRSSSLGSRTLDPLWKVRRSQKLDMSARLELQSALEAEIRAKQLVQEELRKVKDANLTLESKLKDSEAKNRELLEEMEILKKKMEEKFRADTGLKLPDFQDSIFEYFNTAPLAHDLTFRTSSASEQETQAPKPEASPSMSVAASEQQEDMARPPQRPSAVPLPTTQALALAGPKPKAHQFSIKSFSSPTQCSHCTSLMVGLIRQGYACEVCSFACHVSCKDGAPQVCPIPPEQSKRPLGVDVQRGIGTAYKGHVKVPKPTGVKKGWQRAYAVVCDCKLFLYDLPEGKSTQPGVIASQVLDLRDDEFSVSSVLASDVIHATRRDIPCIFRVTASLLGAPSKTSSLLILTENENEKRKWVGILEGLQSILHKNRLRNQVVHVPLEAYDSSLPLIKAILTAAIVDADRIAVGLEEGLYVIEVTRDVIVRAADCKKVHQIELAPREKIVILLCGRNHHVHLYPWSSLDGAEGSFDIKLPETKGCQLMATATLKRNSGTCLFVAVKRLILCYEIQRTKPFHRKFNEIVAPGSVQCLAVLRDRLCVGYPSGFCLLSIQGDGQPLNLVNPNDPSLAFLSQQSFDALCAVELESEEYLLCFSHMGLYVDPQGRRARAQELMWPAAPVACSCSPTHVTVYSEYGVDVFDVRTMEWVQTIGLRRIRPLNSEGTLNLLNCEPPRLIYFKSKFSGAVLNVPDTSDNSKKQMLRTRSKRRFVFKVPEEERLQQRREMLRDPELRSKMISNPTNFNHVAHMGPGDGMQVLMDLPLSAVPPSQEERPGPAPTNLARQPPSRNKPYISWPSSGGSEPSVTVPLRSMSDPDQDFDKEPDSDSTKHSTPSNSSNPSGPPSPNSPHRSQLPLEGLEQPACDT
pIC50: −log10 of the molar value.

| compound | pIC50 |
| --- | --- |
| c1cc(-c2c[nH]c3nccc(N4CCC[C@@]5(CCCCN5)C4)c23)ncn1 [Example E117] | 8.08 |

* * *

- study_system: ROCK1 (Homo sapiens (Human), UniProt Q13464)
- Sequence (Q13464 2-1354 limits assumed): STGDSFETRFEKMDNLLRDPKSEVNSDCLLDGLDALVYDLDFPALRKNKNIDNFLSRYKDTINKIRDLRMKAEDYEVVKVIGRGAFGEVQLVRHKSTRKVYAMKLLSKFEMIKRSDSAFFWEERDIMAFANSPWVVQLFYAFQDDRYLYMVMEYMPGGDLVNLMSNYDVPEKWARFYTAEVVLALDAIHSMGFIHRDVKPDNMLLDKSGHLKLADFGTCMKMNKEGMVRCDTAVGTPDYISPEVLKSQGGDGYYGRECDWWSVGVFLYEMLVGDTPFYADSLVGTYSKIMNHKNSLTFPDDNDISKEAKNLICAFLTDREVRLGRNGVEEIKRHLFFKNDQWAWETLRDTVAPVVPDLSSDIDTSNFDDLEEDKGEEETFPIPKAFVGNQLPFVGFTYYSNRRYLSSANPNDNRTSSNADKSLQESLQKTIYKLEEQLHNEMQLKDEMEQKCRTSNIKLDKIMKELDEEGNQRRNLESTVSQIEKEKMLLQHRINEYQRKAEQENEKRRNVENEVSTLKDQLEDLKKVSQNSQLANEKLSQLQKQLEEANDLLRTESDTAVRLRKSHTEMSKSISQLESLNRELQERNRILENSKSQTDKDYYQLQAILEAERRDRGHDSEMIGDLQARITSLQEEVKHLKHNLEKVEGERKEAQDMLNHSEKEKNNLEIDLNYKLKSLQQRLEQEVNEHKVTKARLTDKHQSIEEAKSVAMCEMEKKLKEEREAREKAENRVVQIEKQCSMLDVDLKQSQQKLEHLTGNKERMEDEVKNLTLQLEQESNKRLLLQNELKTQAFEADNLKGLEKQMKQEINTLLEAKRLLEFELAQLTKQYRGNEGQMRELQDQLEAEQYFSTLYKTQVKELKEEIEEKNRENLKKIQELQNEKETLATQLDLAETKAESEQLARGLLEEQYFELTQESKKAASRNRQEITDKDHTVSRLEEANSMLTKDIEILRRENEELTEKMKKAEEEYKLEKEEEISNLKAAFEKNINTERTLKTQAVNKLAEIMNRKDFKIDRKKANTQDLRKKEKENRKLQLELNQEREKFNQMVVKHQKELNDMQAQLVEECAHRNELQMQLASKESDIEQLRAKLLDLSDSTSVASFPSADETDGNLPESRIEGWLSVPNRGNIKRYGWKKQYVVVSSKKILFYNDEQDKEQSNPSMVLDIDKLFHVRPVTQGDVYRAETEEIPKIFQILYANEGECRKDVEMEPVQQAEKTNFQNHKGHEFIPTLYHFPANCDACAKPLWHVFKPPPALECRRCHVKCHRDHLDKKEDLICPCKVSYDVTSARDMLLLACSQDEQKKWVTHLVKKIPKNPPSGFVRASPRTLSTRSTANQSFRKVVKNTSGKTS
- particulars: read-out: ROCK1 Average Ki; 1 μM ATP
pKi: −log10 of the molar value.

| molecule | pKi |
| --- | --- |
| c1ncc(-c2c[nH]c3nccc(OC[C@H]4CCNC4)c23)cn1 | 7.32 |
| c1ncc(-c2c[nH]c3nccc(NCC4CCCNC4)c23)cn1 (stereo not drawn) | 6.99 |
| N#Cc1c[nH]c2nccc(N3CCCCC3)c12 | 7.24 |
| c1ccc(-c2c[nH]c3nccc(N4CCC5(CCCCN5)C4)c23)nc1 (stereo not drawn) | 6.96 |
| CCN[C@H]1CCCN(c2ccnc3[nH]cc(-c4cncnc4)c23)C1 | 4.30 |
| N#Cc1c[nH]c2nccc(N3CCC4(CCCN4)C3)c12 (stereo not drawn) | 7.87 |
| c1cc(N2CCCCC2)c2c(-c3ccc4[nH]ncc4c3)c[nH]c2n1 | 6.84 |
| NCCC1CCN(c2ccnc3[nH]cc(-c4cncnc4)c23)CC1 | 7.85 |
| c1cc(-c2c[nH]c3nccc(N4CCC[C@]5(CCCCN5)C4)c23)ncn1 | 4.30 |

* * *

- study_system: MRCKβ (Homo sapiens (Human), UniProt Q9Y5S2)
- experimental_details: MRCKβ kinase assay (IMAP fluorescence polarization)
- Assay type: biochemical
- particulars: 1 μM ATP; read-out: MRCK-B Average Ki
With a cut-off of 8 nM, any Ki strictly below it is called class 1; any Ki meeting it or above is called class 0.

| compound | group |
| --- | --- |
| c1ncc(-c2c[nH]c3nccc(OC[C@H]4CCCNC4)c23)cn1 | class 1 |
| Cc1cnc2[nH]cc(-c3cncnc3)c2c1N1CCCCC1 [Example E1] | class 0 |
| NC1CCN(c2ccnc3[nH]cc(-c4cncnc4)c23)CC1 | class 1 |
| Nc1cccc(-c2c[nH]c3nccc(N4CCCCC4)c23)n1 | class 0 |
| N#Cc1c[nH]c2nccc(N3CCC3)c12 | class 0 |

* * *

- study_system: ROCK1 (Homo sapiens (Human), UniProt Q13464)
- particulars: read-out: ROCK1 Average Ki; 1 μM ATP
Ki: recorded values

| compound | Ki [nM] |
| --- | --- |
| COCCN[C@H]1CCCN(c2ccnc3[nH]cc(-c4cncnc4)c23)C1 [Example E73] | 2060 |
| Fc1cncc(-c2c[nH]c3nccc(N4CCCCC4)c23)c1 [Example E11] | 755 |
| N#Cc1c[nH]c2nccc(N3CCCC3c3ccccc3)c12 (centres unmarked) [Example E113] | 388 |
| c1ncc(-c2c[nH]c3nccc(OC[C@@H]4CCNC4)c23)cn1 [Example E219] | 57.6 |
| c1ncc(-c2c[nH]c3nccc(NC4CCCCNC4)c23)cn1 (centres unmarked) [Example E85] | 421 |
| CCn1cc(-c2c[nH]c3nccc(N4CCCCC4)c23)cn1 [Example E21] | 74.9 |
| CC1(N)CCCN(c2ccnc3[nH]cc(-c4cncnc4)c23)C1 (centres unmarked) [Example E178] | 423 |
| c1csc(-c2c[nH]c3nccc(N4CCC[C@]5(CCCCN5)C4)c23)n1 [Example E151] | 114 |
| N#Cc1c[nH]c2nccc(N3CCNCC3)c12 [Example E34] | 43.6 |
| FC1CCN([C@H]2CCCN(c3ccnc4[nH]cc(-c5cncnc5)c34)C2)CC1 [Example E94] | 913 |
| c1ncc(-c2c[nH]c3nccc(N4CC[C@@]5(CCCCN5)C4)c23)cn1 [Example E126] | 68.3 |
| CN(C)c1ccnc2[nH]cc(C#N)c12 [Example E31] | 43.6 |
| Cc1csc(-c2c[nH]c3nccc(N4CCCC5(CCCCN5)C4)c23)n1 (centres unmarked) [Example E158] | 100000 |
| c1cc(-c2c[nH]c3nccc(N4CCC[C@]5(CCCCN5)C4)c23)cnn1 [Example E173] | 294 |
| c1cc(N2CCC2)c2c(-c3cc[nH]n3)c[nH]c2n1 [Example E28] | 14.4 |
| c1ncc(-c2c[nH]c3nccc(N4CCCC5(CCCNC5)C4)c23)cn1 (centres unmarked) [Example E194] | 83.6 |
| CN[C@H]1CCCN(c2ccnc3[nH]cc(-c4ccccn4)c23)C1 [Example E49] | 50800 |
| CNc1cc(-c2c[nH]c3nccc(N4CCCCC4)c23)ccn1 [Example E5] | 40.8 |
| CN1CCN(C(=O)[C@@H]2CCCN2c2ccnc3[nH]cc(C#N)c23)CC1 [Example E204] | 558 |
| CN[C@H]1CCCN(c2ccnc3[nH]cc(-c4cncnc4)c23)[C@H]1C (relative stereo) [Example E179] | 1290 |
